From: patent US20200024330A1

Biological target: HIV-1 Env of isolate MGRM-A-014 (HIV-1)
Experiment: cell-based or functional assay

binder: PGT-127 (antibody, V domains shown) VH: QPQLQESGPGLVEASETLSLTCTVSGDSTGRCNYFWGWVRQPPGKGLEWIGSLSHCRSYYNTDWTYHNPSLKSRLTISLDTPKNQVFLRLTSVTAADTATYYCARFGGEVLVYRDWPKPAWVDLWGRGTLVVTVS VL: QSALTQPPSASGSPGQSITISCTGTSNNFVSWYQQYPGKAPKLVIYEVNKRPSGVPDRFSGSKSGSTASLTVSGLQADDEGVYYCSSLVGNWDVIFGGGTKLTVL
unit_name: µg/mL
IC50 (µg/mL), pseudovirus neutralization: 0.04
//
binder: PGT-123 (antibody, V domains shown) VH: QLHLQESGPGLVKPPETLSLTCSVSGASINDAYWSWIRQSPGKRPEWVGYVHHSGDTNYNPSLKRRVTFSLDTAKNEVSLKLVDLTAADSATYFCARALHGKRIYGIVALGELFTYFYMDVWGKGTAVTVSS VL: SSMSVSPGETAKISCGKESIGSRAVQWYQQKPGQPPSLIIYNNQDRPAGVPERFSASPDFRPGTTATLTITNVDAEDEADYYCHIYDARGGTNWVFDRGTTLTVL
unit_name: µg/mL
IC50 (µg/mL), pseudovirus neutralization: 0.003
//
binder: PGT-126 (antibody, V domains shown) VH: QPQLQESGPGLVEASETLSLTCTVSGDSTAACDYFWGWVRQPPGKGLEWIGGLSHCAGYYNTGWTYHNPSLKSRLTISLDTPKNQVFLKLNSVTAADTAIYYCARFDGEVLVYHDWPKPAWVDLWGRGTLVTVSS VL: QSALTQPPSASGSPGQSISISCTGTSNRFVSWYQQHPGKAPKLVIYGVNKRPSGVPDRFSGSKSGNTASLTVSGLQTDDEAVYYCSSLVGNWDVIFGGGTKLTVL
unit_name: µg/mL
IC50 (µg/mL), pseudovirus neutralization: 0.01
//
binder: PGT-125 (antibody, V domains shown) VH: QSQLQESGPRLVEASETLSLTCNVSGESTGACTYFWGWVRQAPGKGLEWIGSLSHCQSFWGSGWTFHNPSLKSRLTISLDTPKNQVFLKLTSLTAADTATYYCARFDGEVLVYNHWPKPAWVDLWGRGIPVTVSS VL: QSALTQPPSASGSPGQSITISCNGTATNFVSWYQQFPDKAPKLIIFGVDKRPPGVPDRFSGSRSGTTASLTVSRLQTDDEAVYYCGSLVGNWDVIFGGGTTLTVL
unit_name: µg/mL
IC50 (µg/mL), pseudovirus neutralization: 13.9
